Listing of entries alongside the reported melting point.
measured_attribute: melting point

Cl.N=C(NCCc1ccc(Cl)cc1)NC(=N)N1CCCCCC1: 181 to 183 °C
Cl.N=C(NCCc1ccc(F)cc1)NC(=N)N1CCCCCC1: 211 to 212 °C
Cl.N=C(NCc1c(F)cccc1F)NC(=N)N1CCCCC1: 229 to 232 °C
Cl.N=C(NCc1ccc(OC(F)(F)F)cc1)NC(=N)N1CCCCC1: 268 to 269 °C
Cl.N=C(NCc1ccc(Br)cc1)NC(=N)N1CCCC1: 267 to 268 °C
Cl.N=C(NCc1ccc(C(F)(F)F)c(Cl)c1)NC(=N)N1CCCCC1: 254 to 256 °C
CNC(=N)NC(=N)N1CCCCC1.Cl: 211 to 212 °C
Cl.N=C(NCc1ccco1)NC(=N)N1CCCCC1: 251 to 252 °C
Cl.N=C(NCc1ccc(C(F)(F)F)cc1)NC(=N)N1CCCC1: 268 to 270 °C
Cl.N=C(NCc1cccnc1)NC(=N)N1CCCC1: 201 to 203 °C
Cl.N=C(NCc1cccc(C(F)(F)F)c1)NC(=N)N1CCCCC1: 259 to 260 °C
COc1ccc(CNC(=N)NC(=N)N2CCCCC2)cc1.Cl: 213 to 214 °C
Cl.N=C(NCc1ccc(Cl)cc1)NC(=N)N1CCCC1: 250 to 251 °C
Cl.N=C(NCc1cccc(F)c1)NC(=N)N1CCCCC1: 171 to 172 °C
Cl.N=C(NCc1ccc(Cl)c(Cl)c1)NC(=N)N1CCCCC1: 242 to 244 °C
Cl.N=C(NCc1ccccc1)NC(=N)N1CCCCC1: 156 to 158 °C
Cl.N=C(NCc1ccc(Cl)c(C(F)(F)F)c1)NC(=N)N1CCCCC1: 259 to 261 °C
Cl.N=C(NCc1ccc(C(F)(F)F)c(F)c1)NC(=N)N1CCCCC1: 264 to 266 °C
